The measurements presented in this section are drawn from patent US20250353864A1.

Molecular target: EGFR Δ746-750 mutant (Homo sapiens (Human), UniProt P00533, DEL746-750)
Sequence (P00533 other isoform, or with tags, fused parts or gaps del 1-668/del 746-750 limits assumed): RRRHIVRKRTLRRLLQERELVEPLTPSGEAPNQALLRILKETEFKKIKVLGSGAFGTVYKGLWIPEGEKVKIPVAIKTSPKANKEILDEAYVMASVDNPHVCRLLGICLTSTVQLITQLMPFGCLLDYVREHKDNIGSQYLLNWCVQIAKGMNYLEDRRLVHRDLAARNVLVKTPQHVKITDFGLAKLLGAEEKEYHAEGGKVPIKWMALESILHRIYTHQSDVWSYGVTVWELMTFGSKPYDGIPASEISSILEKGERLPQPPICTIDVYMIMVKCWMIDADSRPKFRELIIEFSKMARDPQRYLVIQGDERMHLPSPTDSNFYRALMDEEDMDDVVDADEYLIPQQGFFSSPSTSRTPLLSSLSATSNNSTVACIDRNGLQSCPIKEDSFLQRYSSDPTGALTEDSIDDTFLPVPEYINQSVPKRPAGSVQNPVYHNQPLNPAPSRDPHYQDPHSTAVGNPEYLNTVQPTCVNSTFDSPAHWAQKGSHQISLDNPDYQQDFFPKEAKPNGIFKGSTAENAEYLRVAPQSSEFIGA
Experiment: HotSpot radiometric kinase assay, EGFR Δ746-750 mutant
Conditions: 10 μM ATP
pIC50: −log10 of the molar value.
recorded-metric: pIC50

>>> numeric_readout("Cc1c2c(nn1C)OCCOCc1c(cnn1C)-c1ccc3[nH]nc(c3c1)/C=C/2")
6.05
>>> numeric_readout("CCOc1nn(CCO)c2c1/C=C/c1n[nH]c3ccc(cc13)-c1cnn(C)c1OC1CCCN(C2)C1C (stereo not drawn)")
7.26
>>> numeric_readout("Cc1nn(CCO)c2c1/C=C/c1n[nH]c3ccc(cc13)-c1cnn(C)c1OC(C1CCC1)CN(C)C2 (stereo not drawn)")
7.21
>>> numeric_readout("CC(C)Oc1nn(CCO)c2c1/C=C/c1n[nH]c3ccc(cc13)-c1cnn(C)c1OC(CF)CN(C)C2 (stereo not drawn)")
8.27
>>> numeric_readout("Cc1c2c(nn1CCN1CCCC1)OCCCOc1c(cnn1C)-c1ccc3[nH]nc(c3c1)/C=C/2")
6.81
>>> numeric_readout("C[C@H]1CN(C)Cc2c(c(OC3CN(S(C)(=O)=O)C3)nn2CCO)/C=C/c2n[nH]c3ccc(cc23)-c2cnn(C)c2O1")
9.26
>>> numeric_readout("Cc1nn(C)c2c1/C=C/c1n[nH]c3ccc(cc13)-c1cnn(C)c1O[C@H]1CCCN(C2)C1")
7.60
>>> numeric_readout("Cn1ncc2c1COCCOc1ccccc1/C=C/c1n[nH]c3ccc-2cc13")
7.17
